System: MATB/ADR
Experiment: Soft agar colony formation disk diffusion assay
Assay type: cell-based, rat
Conditions: 10 μg/DISK
The threshold is inclusive: zone of inhibition of exactly 20 Zone Units counts as y; values below receive n.

- compound: "CCOC(=O)[C@H]1CC2=C(C(=O)c3cc4ccccc4c(O)c3C2=O)[C@H](O[C@H]2C[C@H](NC(=O)C(F)(F)F)[C@H](O)[C@H](C)O2)O1"
  class-name: "y"

**Query** Check this compound for zone of inhibition at or above 20 Zone Units: COCOCC(=O)C1CC2=C(CO1)C(=O)c1c(cc3ccccc3c1O)C2=O (stereo not shown)
**Result** n

**Query** Check this compound for zone of inhibition at or above 20 Zone Units: COC(=O)[C@@H]1CC2=C(C(=O)c3c(c(OC)c4ccccc4c3O)C2=O)[C@@H](O[C@H]2C[C@H](NC(=O)C(F)(F)F)[C@H](O)[C@H](C)O2)O1 (mixture of isomers)
**Result** y

**Query** Check this compound for zone of inhibition at or above 20 Zone Units: COC(=O)[C@H]1CC2=C(C(=O)c3c(cc4ccccc4c3O)C2=O)[C@H](O[C@H]2C[C@H](NC(=O)C(F)(F)F)[C@H](O)[C@H](C)O2)O1 (mixture of isomers)
**Result** n

**Query** Check this compound for zone of inhibition at or above 20 Zone Units: CCOC(=O)C1Cc2c(c(OC)c3c(c2OC)C(=O)c2ccccc2C3=O)CS1 (stereo not shown)
**Result** n

**Query** Check this compound for zone of inhibition at or above 20 Zone Units: COC(=O)[C@H]1CC2=C(C(=O)c3c(c(OC)c4ccccc4c3O)C2=O)[C@H](O[C@H]2C[C@H](NC(=O)C(F)(F)F)[C@H](O)[C@H](C)O2)O1 (mixture of isomers)
**Result** y

**Query** Check this compound for zone of inhibition at or above 20 Zone Units: COC(=O)[C@@H]1CC2=C(C(=O)c3c(cc4ccccc4c3O)C2=O)[C@@H](O[C@H]2C[C@H](NC(=O)C(F)(F)F)[C@H](O)[C@H](C)O2)O1
**Result** n

**Query** Check this compound for zone of inhibition at or above 20 Zone Units: C=CC1CC2=C(C(=O)c3cc4ccccc4c(O)c3C2=O)C(OC)O1 (stereo not shown)
**Result** n

**Query** Check this compound for zone of inhibition at or above 20 Zone Units: CCOC(=O)[C@@H]1CC2=C(C(=O)c3cc4ccccc4c(OC(C)=O)c3C2=O)[C@@H](O)O1 (mixture of isomers)
**Result** y

**Query** Check this compound for zone of inhibition at or above 20 Zone Units: CCOC(=O)[C@@H]1CC2=C(C(=O)c3c(c(O)c4ccccc4c3OC(C)=O)C2=O)[C@@H](O)O1 (mixture of isomers)
**Result** n

**Query** Check this compound for zone of inhibition at or above 20 Zone Units: CCOC(=O)C1CC2=C(CO1)C(=O)c1c(cc3ccccc3c1O)C2=O (stereo not shown)
**Result** n

**Query** Check this compound for zone of inhibition at or above 20 Zone Units: CCOC(=O)C1CC2=C(CO1)C(=O)c1c(c(O)c3ccccc3c1OC(C)=O)C2=O (stereo not shown)
**Result** n

**Query** Check this compound for zone of inhibition at or above 20 Zone Units: CC(=O)Oc1c2c(c(O)c3ccccc13)C(=O)C1=C(CC(C(C)=O)OC1)C2=O (stereo not shown)
**Result** y

**Query** Check this compound for zone of inhibition at or above 20 Zone Units: CCOC(=O)C1Cc2c(O)c3c(c(O)c2CS1)C(=O)c1ccccc1C3=O (stereo not shown)
**Result** n

**Query** Check this compound for zone of inhibition at or above 20 Zone Units: CCOC(=O)[C@@H]1CC2=C(C(=O)c3cc4ccccc4c(O)c3C2=O)[C@@H](O[C@H]2C[C@H](NC(=O)C(F)(F)F)[C@H](O)[C@H](C)O2)O1
**Result** y

**Query** Check this compound for zone of inhibition at or above 20 Zone Units: CC(=O)Oc1c2c(c(O)c3ccccc13)C(=O)C1=C(C2=O)C(O)OC(C(C)=O)C1 (stereo not shown)
**Result** y
